- system.name: Prothrombin (Bos taurus)
- protocol.notes: thrombin protease inhibitors – biochemical, fluorescence polarization, uHTS hits, dose response (AID 602369)
- Assay type: functional
The source made the active and inactive calls.
Listing of recorded IC50 by entry.
result.type: IC50

>  <molecule>
CC1=CC2=NC(=O)/C(=C\c3c(C)[nH]c4ccc(C)cc34)C(=N)N2O1

>  <measured.value>
32.1 µM (active)

$$$$
>  <molecule>
Cc1ccc(NC(=O)C(C)SCc2nc(O)c3c4c(sc3n2)CCCC4)nc1 (centres undefined)

>  <measured.value>
17.2 µM (active)

$$$$
>  <molecule>
Cc1cc(/C=C2\SC(=S)NC2=O)c(C)n1C

>  <measured.value>
19.4 µM (active)

$$$$
>  <molecule>
Cc1occc1C(=O)/C(C#N)=C/c1ccc(O)c(Br)c1

>  <measured.value>
12.1 µM (active)

$$$$

###

- system.name: Heat shock factor protein 1 (Mus musculus, UniProt P38532)
- Sequence (P38532 whole entry): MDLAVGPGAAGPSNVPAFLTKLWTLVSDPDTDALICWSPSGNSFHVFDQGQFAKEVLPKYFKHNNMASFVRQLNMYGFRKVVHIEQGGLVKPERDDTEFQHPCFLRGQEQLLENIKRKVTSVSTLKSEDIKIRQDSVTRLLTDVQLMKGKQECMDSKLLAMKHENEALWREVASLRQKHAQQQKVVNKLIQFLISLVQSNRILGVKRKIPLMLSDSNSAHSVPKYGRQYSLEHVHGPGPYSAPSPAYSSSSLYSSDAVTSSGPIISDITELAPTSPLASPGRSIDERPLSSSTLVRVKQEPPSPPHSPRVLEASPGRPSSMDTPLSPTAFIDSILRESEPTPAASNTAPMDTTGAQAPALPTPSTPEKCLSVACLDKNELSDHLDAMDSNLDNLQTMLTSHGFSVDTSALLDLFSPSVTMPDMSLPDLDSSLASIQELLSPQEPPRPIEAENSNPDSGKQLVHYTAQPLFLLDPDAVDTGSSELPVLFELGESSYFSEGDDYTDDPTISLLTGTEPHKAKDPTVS
- protocol.notes: decrease of HSF1-responsive luciferase luminescence – cell-based, NIH3T3, dose retest, confirmation (AID 2382);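 note: NIH3T3 fibroblasts with HSF1-driven luciferase reporter stressed by proteasome inhibitor MG132; luminescence from HSF1-driven luciferase expression after 8 hours of MG132 stress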
- Type: functional
The source made the active and inactive calls.
result.type: EC50

>  <molecule>
OCCN(CCO)CC(O)COc1ccc(C23CC4CC(CC(C4)C2)C3)cc1 (configuration not stated)

>  <system.name>
Heat shock factor protein 1 (Mus musculus, UniProt P38532)

>  <result.type>
EC50

>  <measured.value>
3.11 µM (active)

$$$$
>  <molecule>
Nc1ncnc2oc(-c3ccco3)c(-c3ccco3)c12

>  <system.name>
Heat shock factor protein 1 (Mus musculus, UniProt P38532)

>  <result.type>
EC50

>  <measured.value>
56.7 µM (active)

$$$$
>  <molecule>
CCCC(C(=O)NC(C)(C)C)N(C(=O)c1snc(C(N)=O)c1N)c1ccc2c(c1)OCCO2 (configuration not stated)

>  <system.name>
Heat shock factor protein 1 (Mus musculus, UniProt P38532)

>  <result.type>
EC50

>  <measured.value>
1.58 µM (active)

$$$$
>  <molecule>
COC(=O)c1ccc(CNC(=O)COC(=O)COc2ccc(OC)cc2)cc1

>  <system.name>
Heat shock factor protein 1 (Mus musculus, UniProt P38532)

>  <result.type>
EC50

>  <measured.value>
> 195 µM (not active)

$$$$
>  <molecule>
Cc1cc(=O)n2c(n1)/C(=N\Nc1ccccc1)C(=O)N2

>  <system.name>
Heat shock factor protein 1 (Mus musculus, UniProt P38532)

>  <result.type>
EC50

>  <measured.value>
> 195 µM (not active)

$$$$
>  <molecule>
O=C(COC(=O)CNC(=O)c1ccccc1F)Nc1cccnc1Cl

>  <system.name>
Heat shock factor protein 1 (Mus musculus, UniProt P38532)

>  <result.type>
EC50

>  <measured.value>
> 195 µM (not active)

$$$$
>  <molecule>
Cc1ccc(N2C(=O)NC(NS(=O)(=O)c3ccccc3)(C(F)(F)F)C2=O)cc1 (configuration not stated)

>  <system.name>
Heat shock factor protein 1 (Mus musculus, UniProt P38532)

>  <result.type>
EC50

>  <measured.value>
> 195 µM (not active)

$$$$
>  <molecule>
CC1CC1C(=O)OCC(=O)NCc1ccc(Cl)cc1Cl (configuration not stated)

>  <system.name>
Heat shock factor protein 1 (Mus musculus, UniProt P38532)

>  <result.type>
EC50

>  <measured.value>
> 195 µM (not active)

$$$$
>  <molecule>
CC(/C=N/NC(=O)Cn1cnc2ccccc21)=C\c1ccccc1

>  <system.name>
Heat shock factor protein 1 (Mus musculus, UniProt P38532)

>  <result.type>
EC50

>  <measured.value>
> 195 µM (not active)

$$$$
>  <molecule>
CCC(C(=O)OCC(=O)Nc1cc(Cl)ccc1Cl)c1ccccc1 (configuration not stated)

>  <system.name>
Heat shock factor protein 1 (Mus musculus, UniProt P38532)

>  <result.type>
EC50

>  <measured.value>
> 195 µM (not active)

$$$$
>  <molecule>
NC(=O)CN1CCCC1=O

>  <system.name>
Heat shock factor protein 1 (Mus musculus, UniProt P38532)

>  <result.type>
EC50

>  <measured.value>
> 195 µM (not active)

$$$$
>  <molecule>
Cc1ccccc1-n1c(C)nc2ccccc21

>  <system.name>
Heat shock factor protein 1 (Mus musculus, UniProt P38532)

>  <result.type>
EC50

>  <measured.value>
> 195 µM (not active)

$$$$
>  <molecule>
Cc1cccc(NC2(C(F)(F)F)N=C(c3ccccc3)NC2=O)n1 (configuration not stated)

>  <system.name>
Heat shock factor protein 1 (Mus musculus, UniProt P38532)

>  <result.type>
EC50

>  <measured.value>
71.7 µM (active)

$$$$
>  <molecule>
C(=N\Nc1ccc2ccccc2n1)/c1ccc2c(c1)OCCO2

>  <system.name>
Heat shock factor protein 1 (Mus musculus, UniProt P38532)

>  <result.type>
EC50

>  <measured.value>
< 0.16 µM (active)

$$$$
>  <molecule>
Cc1ccc(C)n1NC(=O)c1ccccc1O

>  <system.name>
Heat shock factor protein 1 (Mus musculus, UniProt P38532)

>  <result.type>
EC50

>  <measured.value>
> 195 µM (not active)

$$$$
>  <molecule>
O=C(O)c1ccc(CN2C(=O)c3cccc4c([N+](=O)[O-])ccc(c34)C2=O)cc1

>  <system.name>
Heat shock factor protein 1 (Mus musculus, UniProt P38532)

>  <result.type>
EC50

>  <measured.value>
6.53 µM (active)

$$$$
>  <molecule>
Cc1nc(C(=O)NNC(=O)c2cccc(Cl)c2)c(C(F)(F)F)o1

>  <system.name>
Heat shock factor protein 1 (Mus musculus, UniProt P38532)

>  <result.type>
EC50

>  <measured.value>
> 195 µM (not active)

$$$$

These measurements were taken from ChEMBL document CHEMBL1201862.
